A collection of molecules and their measured viability, T/C
tested on: 855422-203-R-J1-PDC complex spheroid growth; assay: Anticancer human tumor 855422-203-R-J1-PDC patient-derived bladder carcinoma cell line growth inhibition [AhR]; settings: second compound 0.316 µM; first compound 0.000949 µM; stronger effect = lower value

Consider the reported viability, T/C for these molecules:
State, for 855422-203-R-J1-PDC complex spheroid growth, measured viability, T/C of the molecule listed here: Nc1ncn(C2CC(O)C(CO)S2)c(=O)n1 (stereo unspecified) + CC(CO)NC(=O)c1cc(-c2ccc(Cl)cc2)nn(-c2cnn(C)c2)c1=O
97.3%

Give viability, T/C for CCc1c2c(nc3ccc(O)cc13)-c1cc3c(c(=O)n1C2)COC(=O)[C@]3(O)CC + CC(CO)NC(=O)c1cc(-c2ccc(Cl)cc2)nn(-c2cnn(C)c2)c1=O tested on 855422-203-R-J1-PDC complex spheroid growth.
85.6%

Check 855422-203-R-J1-PDC complex spheroid growth data and give viability, T/C for CCc1c2c(nc3ccc(O)cc13)-c1cc3c(c(=O)n1C2)COC(=O)[C@]3(O)CC + Cc1cncc(-c2nc(NCCc3c[nH]c4ccccc34)c3ncn(C(C)C)c3n2)c1 .
76.5%

Given Nc1ncn(C2CC(O)C(CO)S2)c(=O)n1 (stereo unspecified) + Cc1cncc(-c2nc(NCCc3c[nH]c4ccccc34)c3ncn(C(C)C)c3n2)c1 , report its viability, T/C on 855422-203-R-J1-PDC complex spheroid growth.
90.1%

Give measured viability, T/C for CC(C)CC(NC(=O)C(Cc1ccccc1)NC(=O)c1cnccn1)B(O)O (stereo unspecified) + CC(CO)NC(=O)c1cc(-c2ccc(Cl)cc2)nn(-c2cnn(C)c2)c1=O (855422-203-R-J1-PDC complex spheroid growth).
113%

With those in mind, consider the next molecule.
State viability, T/C on 855422-203-R-J1-PDC complex spheroid growth. Entry: Nc1ncn(C2CC(O)C(CO)S2)c(=O)n1 (stereo unspecified) + Cc1ccccc1N=Nc1ccc(NC(=O)c2ccnn2C)c(C)c1
104%

====

system: 855422-203-R-J1-PDC complex spheroid growth; test: Anticancer human tumor 855422-203-R-J1-PDC cell line growth inhibition [AhR]; details: curve of first compound; second compound 10 µM;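 also: spheroids exposed to agents for seven days before readout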
Listed next: entries and their corresponding pIC50.
pIC50 here is simply -log10 of the concentration when that concentration is written in mol/L.

Worked examples, 3 molecules total:
Look up and state reported pIC50 for CC[C@@]1(O)C(=O)OCc2c1cc1n(c2=O)Cc2cc3c(CN(C)C)c(O)ccc3nc2-1 + Cc1ccccc1N=Nc1ccc(NC(=O)c2ccnn2C)c(C)c1
7.52

Provide only the value of recorded pIC50 for Nc1ccn(C2OC(CO)C(O)C2(F)F)c(=O)n1 (configuration not stated) + Cc1ccccc1N=Nc1ccc(NC(=O)c2ccnn2C)c(C)c1
7.14

Look up and state reported pIC50 for O=C(C=Cn1cnc(-c2cc(C(F)(F)F)cc(C(F)(F)F)c2)n1)NNc1cnccn1 + Cc1ccccc1N=Nc1ccc(NC(=O)c2ccnn2C)c(C)c1
6.14

Next:
Name the recorded pIC50 of the item Nc1ccccc1NC(=O)c1ccc(CNC(=O)OCc2cccnc2)cc1 + CC(CO)NC(=O)c1cc(-c2ccc(Cl)cc2)nn(-c2cnn(C)c2)c1=O in your answer.
5.51

The measured values listed here are drawn from PubChem BioAssay AID1919005.
